tested on: green foxtail (Setaria viridis, SEV); assay: Post-emerge test, green foxtail; assay type: in vivo; settings: 250 g ai/ha, 14 days after application, rating scale 0-100 (0 no damage, 100 complete death)
quantity.name: Post-emerge Herbicidal Activity SEV (phytotoxicity rating)
Lab note: record the figure alone, no unit after it.

Which Post-emerge Herbicidal Activity SEV (phytotoxicity rating) value is on record for CC(C)C1C(=O)Nc2c3c(cc(F)c2-n2c(=O)cc(C(F)(F)F)n(C)c2=O)OCC(=O)N31 (centres unmarked) ? 0

Need Post-emerge Herbicidal Activity SEV (phytotoxicity rating), item CC1Oc2cc(F)c(-c3nn(C)c(OC(F)F)c3Cl)c3c2N(C1=O)C(C)C(=O)N3 (mixture of isomers) 99

Find the recorded Post-emerge Herbicidal Activity SEV (phytotoxicity rating) belonging to Cn1nc(-c2c(F)cc3c4c2NC(=O)C(C)(C)N4C(=O)CO3)c(Cl)c1C(F)(F)F and report it. 99

Look at this compound and give its reported Post-emerge Herbicidal Activity SEV (phytotoxicity rating). Cn1nc(-c2c(F)cc3c4c2NC(=O)C(C)(C)N4C(=O)CO3)c(Cl)c1OC(F)F 100

Recorded Post-emerge Herbicidal Activity SEV (phytotoxicity rating) for CC1C(=O)Nc2c(-c3nn(C)c(C(F)(F)F)c3Cl)c(F)cc3c2N1C(=O)C(C)(C)O3 (centres unmarked) , please? 65

Any idea what Post-emerge Herbicidal Activity SEV (phytotoxicity rating) was measured for C[C@H]1Oc2cc(F)c(-c3nn(C)c(C(F)(F)F)c3Cl)c3c2N(CC(=O)N3)C1=O ? 98

Suppose we examine the compound CCC1C(=O)Nc2c3c(cc(F)c2-n2nc(C)n(C(F)F)c2=O)OCC(=O)N31 (centres unmarked) ; what Post-emerge Herbicidal Activity SEV (phytotoxicity rating) value has been reported? 0

Post-emerge Herbicidal Activity SEV (phytotoxicity rating) for CC1C(=O)Nc2c(-c3ncc(C(F)(F)F)cc3Cl)c(F)cc3c2N1C(=O)CO3 (centres unmarked) ? 100

Which Post-emerge Herbicidal Activity SEV (phytotoxicity rating) value is on record for CC1C(=O)Nc2c3c(cc(F)c2-n2c(=O)cc(C(F)(F)F)n(C)c2=O)OCC(=O)N31 (centres unmarked) ? 60

Query: Post-emerge Herbicidal Activity SEV (phytotoxicity rating); subject: C[C@@H]1Oc2cc(F)c(-c3nn(C)c(C(F)(F)F)c3Cl)c3c2N(CC(=O)N3)C1=O 100

====

tested on: wheat (Triticum aestivum); assay: Pre-emerge test, crop damage wheat; format: in vivo; settings: Triticum aestivum (wheat), in vivo, 14 days
Outcome label depends on Pre-emerge crop damage WHEAT (phytotoxicity rating) relative to 80: at/above gives true (1), below gives false (0).

Hello, I need to know if Cn1nc(-c2c(F)cc3c4c2NC(=O)CN4C(=O)CO3)c(Cl)c1C(F)(F)F [1-13] has measured Pre-emerge crop damage WHEAT (phytotoxicity rating) not below 80. Thanks! false (0)

Check this compound for Pre-emerge crop damage WHEAT (phytotoxicity rating) at or above 80: C[C@H]1Oc2cc(F)c(-c3nn(C)c(OC(F)F)c3Cl)c3c2N(CC(=O)N3)C1=O [1-55] false (0)

Hello, I need to know if C[C@H]1Oc2cc(F)c(-c3nn(C)c(C(F)(F)F)c3Cl)c3c2N(CC(=O)N3)C1=O [1-48] has measured Pre-emerge crop damage WHEAT (phytotoxicity rating) not below 80. Thanks! false (0)

Quick check: does Cn1nc(-c2c(F)cc3c4c2NC(=O)CN4C(=O)C(C)(C)O3)c(Cl)c1C(F)(F)F [1-52] have Pre-emerge crop damage WHEAT (phytotoxicity rating) greater than or equal to 80? false (0)

# check: Pre-emerge crop damage WHEAT (phytotoxicity rating) of Cn1nc(-c2c(F)cc3c4c2NC(=O)CN4C(=O)CO3)c(Cl)c1OC(F)F [1-25] is greater than or equal to 80 true (1)

Does CC1C(=O)Nc2c(-c3nn(C)c(OC(F)F)c3Cl)c(F)cc3c2N1C(=O)CO3 (stereo not shown) [1-26] have a reported Pre-emerge crop damage WHEAT (phytotoxicity rating) of at least 80? true (1)

Please indicate if the recorded Pre-emerge crop damage WHEAT (phytotoxicity rating) for Cn1nc(-c2c(F)cc3c4c2NC(=O)C(C)(C)N4C(=O)CO3)c(Cl)c1C(F)(F)F [1-15] meets or exceeds 80. true (1)

====

tested on: wheat (Triticum aestivum); assay: Post-emerge test, crop damage wheat; assay type: in vivo; conditions: post-emerge, 250 g ai/ha, 14 days after application, rating scale 0-100 (0 no damage, 100 complete death)
quantity.name: Post-emerge crop damage WHEAT (phytotoxicity rating)
Could you respond with only the numeric value?

Dear colleague, I am looking for the recorded Post-emerge crop damage WHEAT (phytotoxicity rating) of the following molecule: O=C1Nc2c(-c3ncc(C(F)(F)F)cc3Cl)c(F)cc3c2N(C(=O)CO3)C1c1ccccc1 (centres unmarked) [1-68] 0

====

tested on: upland rice (Oryza sp., var.Tebonnet, RICE); experiment: Post-emerge test, crop damage upland rice; type: in vivo; conditions: post-emerge, 250 g ai/ha, 14 days after application, rating scale 0-100 (0 no damage, 100 complete death)
# Post-emerge crop damage RICE (phytotoxicity rating) listing for each entry below

Look over these answered cases.
molecule	experimental.result
CCC1C(=O)Nc2c(-c3nn(C)c(OC(F)F)c3Cl)c(F)cc3c2N1C(=O)C(C)(C)O3 (centres unmarked) [1-61]	30
CC1C(=O)Nc2c3c(cc(F)c2-n2c(=O)cc(C(F)(F)F)n(C)c2=O)OCC(=O)N31 (centres unmarked) [1-2]	70
CC1Oc2cc(F)c(-c3nn(C)c(OC(F)F)c3Cl)c3c2N(C1=O)C(C)C(=O)N3 (mixture of isomers) [1-57]	65
O=C1CN2C(=O)COc3cc(F)c(-n4nnn(CCCF)c4=O)c(c32)N1 [1-76]	0
Cc1nn(-c2c(F)cc3c4c2NC(=O)CN4C(=O)CO3)c(=O)n1C(F)F [1-73]	75

Missing value: Post-emerge crop damage RICE (phytotoxicity rating), upland rice (Oryza sp., var.Tebonnet, RICE), entry O=C1Nc2c(-c3ncc(C(F)(F)F)cc3Cl)c(F)cc3c2N(C(=O)CO3)C1c1ccccc1 (centres unmarked) [1-68] . Fill in? 0

Record Cc1nn(-c2c(F)cc3c4c2NC(=O)C(C)N4C(=O)CO3)c(=O)n1C(F)F (centres unmarked) [1-74] : what is its Post-emerge crop damage RICE (phytotoxicity rating) with upland rice (Oryza sp., var.Tebonnet, RICE)? 0

Observed Post-emerge crop damage RICE (phytotoxicity rating) on upland rice (Oryza sp., var.Tebonnet, RICE) for O=C1CN2C(=O)COc3cc(F)c(N4C(=O)C5=C(CCCC5)C4=O)c(c32)N1 [1-37] , please. 80

====

tested on: field corn (Zea mays L., var. Dekalb 535, CORN); assay: Post-emerge test, crop damage field corn; assay type: in vivo; conditions: post-emerge, 250 g ai/ha, 14 days after application, rating scale 0-100 (0 no damage, 100 complete death)
Lab note: anything with Post-emerge crop damage CORN (phytotoxicity rating) at or over 20 counts as Y; the rest go in N.

Examples with answers:
compound	group
O=C1CN2C(=O)COc3cc(F)c(-n4nnn(CCCF)c4=O)c(c32)N1	N
Cn1nc(-c2c(F)cc3c4c2NC(=O)C(C)(C)N4C(=O)CO3)c(Cl)c1OC(F)F	Y
CCC1C(=O)Nc2c(-c3nn(C)c(OC(F)F)c3Cl)c(F)cc3c2N1C(=O)C(C)(C)O3 (centres unmarked)	N

Identify whether the reported Post-emerge crop damage CORN (phytotoxicity rating) of the following compound is 20 or greater: CC1Oc2cc(F)c(-c3nn(C)c(C(F)(F)F)c3Cl)c3c2N(C1=O)C(C)C(=O)N3 (mixture of isomers) [1-51] Y

Evaluate CCC1C(=O)Nc2c(-c3ncc(C(F)(F)F)cc3Cl)c(F)cc3c2N1C(=O)CO3 (centres unmarked) : Post-emerge crop damage CORN (phytotoxicity rating) at minimum 20? N

Decide: Post-emerge crop damage CORN (phytotoxicity rating) of Cc1nn(-c2c(F)cc3c4c2NC(=O)C(C)N4C(=O)CO3)c(=O)n1C(F)F (centres unmarked) >= 20? N

Does O=C1CN2C(=O)COc3cc(F)c(N4C(=O)C5=C(CCCC5)C4=O)c(c32)N1 have a reported Post-emerge crop damage CORN (phytotoxicity rating) of at least 20? Y

Kindly determine if Post-emerge crop damage CORN (phytotoxicity rating) recorded for CC1C(=O)Nc2c3c(cc(F)c2-n2c(=O)cc(C(F)(F)F)n(C)c2=O)OCC(=O)N31 (centres unmarked) is above or exactly 20. N

Check if Post-emerge crop damage CORN (phytotoxicity rating) >= 20 (inclusive). Item: Cn1c(C(F)(F)F)cc(=O)n(-c2c(F)cc3c4c2NC(=O)CN4C(=O)CO3)c1=O N

I'd appreciate it if you could say whether CC1C(=O)N(C)c2c(-c3nn(C)c(OC(F)F)c3Cl)c(F)cc3c2N1C(=O)CO3 (centres unmarked) has Post-emerge crop damage CORN (phytotoxicity rating) at least equal to 20. N

Exam item: decide whether the reported Post-emerge crop damage CORN (phytotoxicity rating) for Cn1nc(-c2c(F)cc3c4c2NC(=O)C(c2ccccc2)N4C(=O)CO3)c(Cl)c1C(F)(F)F (centres unmarked) is at least 20. N

Form field: Post-emerge crop damage CORN (phytotoxicity rating) at least 20? Entry: CC1Oc2cc(F)c(-c3nn(C)c(OC(F)F)c3Cl)c3c2N(C1=O)C(C)C(=O)N3 (mixture of isomers) N

In plain terms: is recorded Post-emerge crop damage CORN (phytotoxicity rating) at least 20 for CCC1C(=O)Nc2c3c(cc(F)c2-n2c(=O)cc(C(F)(F)F)n(C)c2=O)OCC(=O)N31 (centres unmarked) ? N

Post-emerge crop damage CORN (phytotoxicity rating) >= 20 for CC(C)C1C(=O)Nc2c3c(cc(F)c2-n2c(=O)cc(C(F)(F)F)n(C)c2=O)OCC(=O)N31 (centres unmarked) ? N
